TEST TARGET: Bifunctional purine biosynthesis protein ATIC (Homo sapiens)
Sequence (P31939 whole entry): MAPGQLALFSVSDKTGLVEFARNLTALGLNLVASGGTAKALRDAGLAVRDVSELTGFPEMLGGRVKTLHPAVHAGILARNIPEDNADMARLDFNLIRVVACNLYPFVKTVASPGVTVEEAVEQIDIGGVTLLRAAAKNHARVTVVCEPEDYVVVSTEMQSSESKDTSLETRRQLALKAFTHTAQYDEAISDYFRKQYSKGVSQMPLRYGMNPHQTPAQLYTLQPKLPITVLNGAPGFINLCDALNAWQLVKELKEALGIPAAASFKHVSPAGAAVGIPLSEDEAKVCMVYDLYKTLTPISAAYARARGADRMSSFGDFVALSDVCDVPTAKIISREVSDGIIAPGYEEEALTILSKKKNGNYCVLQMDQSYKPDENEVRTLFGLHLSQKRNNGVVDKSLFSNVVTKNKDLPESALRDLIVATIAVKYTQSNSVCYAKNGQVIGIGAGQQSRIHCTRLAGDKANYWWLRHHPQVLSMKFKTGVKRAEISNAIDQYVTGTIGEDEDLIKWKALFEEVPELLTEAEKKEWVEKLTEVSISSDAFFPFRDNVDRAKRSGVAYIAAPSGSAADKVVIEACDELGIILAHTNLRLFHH
EXPERIMENT DESCRIPTION: Inhibition activity against AICAR formyltransferase determined against MOLT-4
Assay type: cell-based
MEASUREMENT LABEL: IC50 (µM)
Could you give me the number in µM? Just the number is fine.

# input Tell me the measured IC50 of "Nc1nc(N)c(CCCNc2ccc(C(=O)N[C@@H](CCC(=O)O)C(=O)O)cc2)c(=O)[nH]1" , please.
# output 94
